assayInfo: Toxicity liver stage against HepG2, at 10uM
Format: cell-based
Design: test concentration 10 uM, cell line HepG2-A16-CD81EGFP
conditionLabel: human, HepG2-A16-CD81EGFP cells; read-out: INHIBITION
observedProperty: cytotoxicity at 10 µM

>  <compound>
CNC(=O)CN1CCC(CN(C)Cc2ccc(C)cc2C)CC1

>  <reportedResult>
4%

$$$$
>  <compound>
CC(C)(C)CN[C@@H]1CO[C@H](CNC(=O)Nc2ccccc2)[C@H]1O

>  <reportedResult>
6.98%

$$$$
>  <compound>
Cc1ccc(OCc2nc(CNCC3CN(C)CCO3)cs2)cc1 (stereo unspecified)

>  <reportedResult>
-23.5%

$$$$
>  <compound>
CCc1nc(C)c(C(=O)N[C@@H]2c3ccccc3C[C@@H]2O)o1

>  <reportedResult>
4.57%

$$$$
>  <compound>
CNC(=O)C1=NOC2(CCN(Cc3nccs3)C2)C1 (stereo unspecified)

>  <reportedResult>
-73.4%

$$$$
>  <compound>
CC(C)c1noc(CS(=O)(=O)CC(=O)NCc2cccs2)n1

>  <reportedResult>
2.71%

$$$$

Provenance of the data: ChEMBL document CHEMBL4513216
